The values you see were collected from ChEMBL document CHEMBL1138514.

compounds and their reported fold induction
# target.or.system: MDR3 (ABCB1) (Mus musculus, UniProt P21447)
# Sequence (P21447 whole entry): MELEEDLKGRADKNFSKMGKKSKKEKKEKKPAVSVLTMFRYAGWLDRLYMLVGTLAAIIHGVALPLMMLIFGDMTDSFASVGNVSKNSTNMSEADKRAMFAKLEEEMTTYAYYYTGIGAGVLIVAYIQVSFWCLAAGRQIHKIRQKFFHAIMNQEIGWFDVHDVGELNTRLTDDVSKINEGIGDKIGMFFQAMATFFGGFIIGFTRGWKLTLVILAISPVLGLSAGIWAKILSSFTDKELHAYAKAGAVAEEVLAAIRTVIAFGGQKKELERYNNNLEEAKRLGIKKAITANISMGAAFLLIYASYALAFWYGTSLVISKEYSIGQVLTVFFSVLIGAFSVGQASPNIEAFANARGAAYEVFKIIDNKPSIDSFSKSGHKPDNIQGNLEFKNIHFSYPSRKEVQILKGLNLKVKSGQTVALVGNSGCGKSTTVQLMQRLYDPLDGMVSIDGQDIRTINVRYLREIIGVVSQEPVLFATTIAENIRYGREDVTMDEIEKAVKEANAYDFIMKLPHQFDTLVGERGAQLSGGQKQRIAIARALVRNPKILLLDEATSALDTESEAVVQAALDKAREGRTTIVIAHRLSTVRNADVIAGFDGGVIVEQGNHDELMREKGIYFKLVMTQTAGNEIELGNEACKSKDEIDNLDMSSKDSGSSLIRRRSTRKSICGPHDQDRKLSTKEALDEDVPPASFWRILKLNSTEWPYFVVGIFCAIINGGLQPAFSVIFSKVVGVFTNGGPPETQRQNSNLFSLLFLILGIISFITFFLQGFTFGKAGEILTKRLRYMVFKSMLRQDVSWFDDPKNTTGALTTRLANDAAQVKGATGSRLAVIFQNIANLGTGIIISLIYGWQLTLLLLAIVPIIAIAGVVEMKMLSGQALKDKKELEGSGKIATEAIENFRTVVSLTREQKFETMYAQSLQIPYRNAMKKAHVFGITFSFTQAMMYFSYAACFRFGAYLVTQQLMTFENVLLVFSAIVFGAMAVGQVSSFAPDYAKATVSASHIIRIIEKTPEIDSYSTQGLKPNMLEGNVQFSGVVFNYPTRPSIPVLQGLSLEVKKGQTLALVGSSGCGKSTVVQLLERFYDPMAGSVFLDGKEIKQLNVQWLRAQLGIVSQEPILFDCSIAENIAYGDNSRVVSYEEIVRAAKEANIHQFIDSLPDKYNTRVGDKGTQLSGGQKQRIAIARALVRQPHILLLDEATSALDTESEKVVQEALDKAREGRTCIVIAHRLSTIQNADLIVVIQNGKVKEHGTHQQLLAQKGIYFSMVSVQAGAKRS
# assay.name: Induction of mouse cysteine-less MDR3 ATPase activity relative to basal activity
# condition.summary: mouse cysteine-less MDR3
experimental.endpoint: fold induction

INSERT INTO assay_data (input_smiles, target_or_system, experimental_endpoint, reading) VALUES
  ('CN(C)c1ccc(-c2c3ccc(=[N+](C)C)cc-3sc3cc(N(C)C)ccc23)cc1', 'MDR3 (ABCB1) (Mus musculus, UniProt P21447)', 'fold induction', 1),
  ('C[N+](C)=c1ccc2c(-c3ccccc3)c3cc4c5c(c3[se]c-2c1)CCCN5CCC4.F[P-](F)(F)(F)(F)F', 'MDR3 (ABCB1) (Mus musculus, UniProt P21447)', 'fold induction', 2.1),
  ('CN(C)c1ccc2c(-c3ccc(CCl)cc3)c3ccc(=[N+](C)C)cc-3oc2c1.[Br-]', 'MDR3 (ABCB1) (Mus musculus, UniProt P21447)', 'fold induction', 3.7),
  ('CN(C)c1ccc2c(-c3ccccc3C(=O)O)c3ccc(=[N+](C)C)cc-3sc2c1', 'MDR3 (ABCB1) (Mus musculus, UniProt P21447)', 'fold induction', 3.5),
  ('COC(=O)c1ccccc1-c1c2ccc(=[N+](C)C)cc-2sc2cc(N(C)C)ccc12', 'MDR3 (ABCB1) (Mus musculus, UniProt P21447)', 'fold induction', 6),
  ('COc1cccc(-c2c3ccc(=[N+](C)C)cc-3[se]c3cc(N(C)C)ccc23)c1', 'MDR3 (ABCB1) (Mus musculus, UniProt P21447)', 'fold induction', 6.4),
  ('CCOC(=O)c1ccc(-c2c3ccc(=[N+](C)C)cc-3sc3cc(N(C)C)ccc23)s1', 'MDR3 (ABCB1) (Mus musculus, UniProt P21447)', 'fold induction', 2.9),
  ('CN(C)c1ccc2c(-c3ccccc3)c3ccc(=[N+](C)C)cc-3[se]c2c1', 'MDR3 (ABCB1) (Mus musculus, UniProt P21447)', 'fold induction', 4),
  ('CCN(CC)C(=O)c1ccc(-c2c3ccc(=[N+](C)C)cc-3sc3cc(N(C)C)ccc23)s1', 'MDR3 (ABCB1) (Mus musculus, UniProt P21447)', 'fold induction', 10.6);

----------
# target.or.system: MDR1 (ABCB1) (Homo sapiens, UniProt P08183)
# Sequence (P08183 whole entry): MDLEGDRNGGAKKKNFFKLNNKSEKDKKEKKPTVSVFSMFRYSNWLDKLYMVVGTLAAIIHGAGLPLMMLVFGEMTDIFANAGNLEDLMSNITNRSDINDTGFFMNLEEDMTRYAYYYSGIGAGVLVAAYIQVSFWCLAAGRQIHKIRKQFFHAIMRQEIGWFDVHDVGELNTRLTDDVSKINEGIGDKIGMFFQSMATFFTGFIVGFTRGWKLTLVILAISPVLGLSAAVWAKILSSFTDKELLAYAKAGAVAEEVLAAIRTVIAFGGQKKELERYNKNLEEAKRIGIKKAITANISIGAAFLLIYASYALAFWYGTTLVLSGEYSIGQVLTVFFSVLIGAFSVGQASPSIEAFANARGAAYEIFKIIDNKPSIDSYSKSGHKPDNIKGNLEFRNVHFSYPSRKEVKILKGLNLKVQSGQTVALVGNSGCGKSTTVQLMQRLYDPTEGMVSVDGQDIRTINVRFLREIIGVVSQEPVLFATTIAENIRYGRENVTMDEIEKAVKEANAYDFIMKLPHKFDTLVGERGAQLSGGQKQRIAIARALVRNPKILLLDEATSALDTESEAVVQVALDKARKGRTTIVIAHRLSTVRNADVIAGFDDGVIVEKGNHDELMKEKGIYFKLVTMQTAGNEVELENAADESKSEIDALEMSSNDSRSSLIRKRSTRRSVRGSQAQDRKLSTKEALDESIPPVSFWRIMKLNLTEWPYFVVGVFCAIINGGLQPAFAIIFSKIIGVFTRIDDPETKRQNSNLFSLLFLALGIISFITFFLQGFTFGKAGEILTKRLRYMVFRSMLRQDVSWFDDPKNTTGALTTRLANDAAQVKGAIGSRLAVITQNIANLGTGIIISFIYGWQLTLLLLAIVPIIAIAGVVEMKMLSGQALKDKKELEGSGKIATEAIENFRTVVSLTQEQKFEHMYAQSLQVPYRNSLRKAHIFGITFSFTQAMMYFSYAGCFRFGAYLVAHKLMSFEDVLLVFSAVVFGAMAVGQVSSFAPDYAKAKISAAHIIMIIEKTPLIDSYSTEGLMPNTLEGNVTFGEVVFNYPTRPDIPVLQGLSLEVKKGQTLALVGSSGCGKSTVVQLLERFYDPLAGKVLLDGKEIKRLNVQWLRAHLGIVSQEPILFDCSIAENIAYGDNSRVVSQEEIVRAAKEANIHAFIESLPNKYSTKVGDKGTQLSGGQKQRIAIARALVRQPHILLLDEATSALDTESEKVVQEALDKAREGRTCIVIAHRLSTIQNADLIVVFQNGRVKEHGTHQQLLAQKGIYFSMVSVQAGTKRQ
# assay.name: Induction of human histidine10-tagged MDR1 ATPase activity expressed in BHK cells relative to basal activity
# condition.summary: human histidine10-tagged MDR1 expressed in BHK cells
Friendly reminder: fold induction below 8 is Fulfilled, at or above is Not fulfilled.

INSERT INTO measurements (input_smiles, class_label) VALUES
  ('C[N+](C)=c1ccc2c(-c3ccccc3)c3cc4c5c(c3[te]c-2c1)CCCN5CCC4', 'Fulfilled'),
  ('CN(C)c1ccc(-c2c3ccc(=[N+](C)C)cc-3sc3cc(N(C)C)ccc23)cc1', 'Not fulfilled'),
  ('CN(C)c1cccc(-c2c3ccc(=[N+](C)C)cc-3[se]c3cc(N(C)C)ccc23)c1', 'Fulfilled'),
  ('CN(C)c1ccc(-c2c3ccc(=[N+](C)C)cc-3[se]c3c4c5c(cc23)CCCN5CCC4)cc1', 'Fulfilled'),
  ('CCN(CC)C(=O)c1ccc(-c2c3ccc(=[N+](C)C)cc-3[se]c3cc(N(C)C)ccc23)s1.F[P-](F)(F)(F)(F)F', 'Not fulfilled'),
  ('C[N+](C)=c1ccc2c(-c3ccccc3)c3cc4c5c(c3[se]c-2c1)CCCN5CCC4.F[P-](F)(F)(F)(F)F', 'Fulfilled'),
  ('CN(C)c1cccc(-c2c3ccc(=[N+](C)C)cc-3[se]c3c4c5c(cc23)CCCN5CCC4)c1', 'Fulfilled'),
  ('CN(C)c1cccc(-c2c3ccc(=[N+](C)C)cc-3[te]c3cc(N(C)C)ccc23)c1', 'Fulfilled');

----------
# Tested on: MDR1
# assay.name: Permeability from basolateral to apical side of MDCK2 cells over expressing MDR1 at 5 uM in presence LSN335984 pretreated for 30 mins measured after 1 hr
# condition.summary: dog, MDCK-MDR1
experimental.endpoint: Papp B→A at 1 h, 5 µM (×10⁻⁶ cm/s)

INSERT INTO results (input_smiles, target_or_system, experimental_endpoint, reading) VALUES
  ('CN(C)c1ccc2c(-c3ccc(C(=S)N4CCCCC4)s3)c3ccc(=[N+](C)C)cc-3[te]c2c1.F[P-](F)(F)(F)(F)F', 'MDR1', 'Papp B→A at 1 h, 5 µM', 0.2);

----------
molecules and their reported Activity
# assay.name: Permeability from apical to basolateral side of MDCK2 cell monolayer over expressing MDR1 assessed as drug concentration associated with cell at 5 uM after 1 hr of drug washout by methanol in presence of LSN335984
# condition.summary: dog, mdck-ii, 1 h
experimental.endpoint: Activity (%)

INSERT INTO assay_data (molecule, experimental_endpoint, reading) VALUES
  ('CN(C)c1ccc2c(-c3ccc(CCl)cc3)c3ccc(=[N+](C)C)cc-3oc2c1.[Br-] [TETRAMETHYLROSAMINE]', 'Activity', 54),
  ('COc1ccc(-c2c3ccc(=[N+](C)C)cc-3sc3cc(N(C)C)ccc23)cc1OC.F[P-](F)(F)(F)(F)F', 'Activity', 53),
  ('C[N+](C)=c1ccc2c(-c3ccccc3)c3cc4c5c(c3[se]c-2c1)CCCN5CCC4.F[P-](F)(F)(F)(F)F', 'Activity', 64),
  ('CCN(CC)C(=O)c1ccc(-c2c3ccc(=[N+](C)C)cc-3[se]c3cc(N(C)C)ccc23)s1.F[P-](F)(F)(F)(F)F', 'Activity', 24),
  ('COc1cccc(-c2c3ccc(=[N+](C)C)cc-3sc3cc(N(C)C)ccc23)c1.[Br-]', 'Activity', 56);

----------
# System: MDR1
# assay.name: Efflux ratio of permeability from apical to basolateral over basolateral to apical side in MDCK2 cells over expressing MDR1 at 5 uM after 1 hr in presence LSN335984 pretreated for 30 mins measured after 1 hr
# condition.summary: dog, MDCK-MDR1
experimental.endpoint: efflux ratio at 1 h, 5 µM

INSERT INTO measurements (input_smiles, reading) VALUES
  ('CN(C)c1ccc2c(-c3ccc(CCl)cc3)c3ccc(=[N+](C)C)cc-3oc2c1.[Br-]', 1.6),
  ('CN(C)c1ccc2c(-c3ccc(C(=S)N4CCCCC4)s3)c3ccc(=[N+](C)C)cc-3[te]c2c1.F[P-](F)(F)(F)(F)F', 1.7);

----------
# Tested on: MDR1
# assay.name: Permeability from basolateral to apical side of MDCK2 cells over expressing MDR1 at 5 uM in presence LSN335984 pretreated for 30 mins measured after 1 hr
# condition.summary: dog, MDCK-MDR1, with LSN335984 (concentration not stated)
molecules and their reported Papp B→A at 1 h, 5 µM
experimental.endpoint: Papp B→A at 1 h, 5 µM (×10⁻⁶ cm/s)

INSERT INTO measurements (molecule, unit, reading) VALUES
  ('CN(C)c1ccc2c(-c3ccc(CCl)cc3)c3ccc(=[N+](C)C)cc-3oc2c1.[Br-] [TETRAMETHYLROSAMINE]', '×10⁻⁶ cm/s', 2.1),
  ('C[N+](C)=c1ccc2c(-c3ccccc3)c3cc4c5c(c3[se]c-2c1)CCCN5CCC4.F[P-](F)(F)(F)(F)F', '×10⁻⁶ cm/s', 1.2);

----------
# target.or.system: MDR3 (ABCB1) (Mus musculus, UniProt P21447)
# assay.name: Induction of mouse cysteine-less MDR3 ATPase activity relative to basal activity
# condition.summary: mouse cysteine-less MDR3
experimental.endpoint: fold induction

INSERT INTO assay_data (input_smiles, qualifier_symbol, reading) VALUES
  ('CN(C)c1cccc(-c2c3ccc(=[N+](C)C)cc-3sc3cc(N(C)C)ccc23)c1', '=', 3.5),
  ('CN(C)c1ccc2c(CCCOc3ccccc3)c3ccc(=[N+](C)C)cc-3sc2c1', '=', 6),
  ('CN(C)c1ccc2c(-c3ccc(N4CCOCC4)cc3)c3ccc(=[N+](C)C)cc-3[se]c2c1', '<', 1),
  ('COc1ccc(-c2c3ccc(=[N+](C)C)cc-3sc3cc(N(C)C)ccc23)cc1OC.F[P-](F)(F)(F)(F)F', '=', 3),
  ('CN(C)c1ccc2c(-c3ccsc3C(=O)O)c3ccc(=[N+](C)C)cc-3[se]c2c1', '=', 1.7),
  ('CCN(CC)C(=O)c1ccc(-c2c3ccc(=[N+](C)C)cc-3[se]c3cc(N(C)C)ccc23)s1.F[P-](F)(F)(F)(F)F', '=', 10.1),
  ('CCN(CC)C(=O)c1ccccc1-c1c2ccc(=[N+](C)C)cc-2sc2cc(N(C)C)ccc12', '=', 10.1);
